Measured pIC50 of individual entries
Target: Cbl-b (Homo sapiens (Human))
Sequence (Q13191 36-427): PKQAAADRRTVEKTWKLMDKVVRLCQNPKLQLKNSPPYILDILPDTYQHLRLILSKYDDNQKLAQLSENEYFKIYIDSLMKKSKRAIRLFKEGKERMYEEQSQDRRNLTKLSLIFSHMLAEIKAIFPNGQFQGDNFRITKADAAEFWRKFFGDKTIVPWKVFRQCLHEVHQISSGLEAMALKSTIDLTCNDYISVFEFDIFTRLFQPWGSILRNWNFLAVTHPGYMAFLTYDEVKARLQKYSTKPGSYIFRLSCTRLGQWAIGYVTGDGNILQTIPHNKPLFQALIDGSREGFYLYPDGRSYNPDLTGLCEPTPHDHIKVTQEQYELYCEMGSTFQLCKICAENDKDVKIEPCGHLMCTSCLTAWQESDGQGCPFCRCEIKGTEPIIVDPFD
Assay: Cbl-b displacement assay (Cbl-b inhibition assay), Biological Example 1
Type: binding
Conditions: 0.125 nM Cbl-b final concentration (Low); read-out: Cbl-b activity IC50 (Low)
pIC50: −log10 of the molar value.

Here are 5 molecules together with their reported answers.
Look up pIC50 for this molecule: CC1CN(Cc2cc3c(c(C(F)(F)F)c2)CN(c2cccc([C@]4(Cc5nncn5C)C[C@@H](C#N)C4)c2)C3=O)CCCO1 (stereo partly drawn) [Compound 33]
8.30 to 8.70

Look up pIC50 for this molecule: COCC1COCCN(Cc2cc3c(c(C(F)(F)F)c2)CN(c2cccc([C@]4(Cc5nncn5C)C[C@@H](C#N)C4)c2)C3=O)C1 (stereo partly drawn) [Compound 46]
7.70 to 8.30

Look up pIC50 for this molecule: C[C@@H]1CN(Cc2cc(C(=O)Nc3cccc([C@]4(Cc5nncn5C)C[C@@H](C#N)C4)c3)nc(C3CC3)c2)CCO1 [Compound 56]
> 9.00

Look up pIC50 for this molecule: Cn1cnnc1C[C@]1(c2cccc(N3Cc4c(cc(CN5CCC6C(C5)C6(F)F)cc4C(F)(F)F)C3=O)c2)C[C@H](C#N)C1 (stereo partly drawn) [Compound 27]
8.30 to 8.70

Look up pIC50 for this molecule: C[C@@H]1CN(Cc2cc3c(c(C(F)(F)F)c2)CN(c2cccc([C@]4(Cc5nncn5C)C[C@@H](C#N)C4)c2)C3=O)CCC1(F)F [Compound 11]
8.70 to 9.00

Now take the following molecule into account.
Look up pIC50 for this molecule: C[C@@H]1C[C@H](C)CN(Cc2cc(C(=O)Nc3cccc([C@]4(Cc5nncn5C)C[C@@H](C#N)C4)c3)nc(C3CC3)c2)C1 [Compound 54]
> 9.00

---

Tested on: primary human total T-cells
Experiment: T-cell activation, IL-2 secretion, Biological Example 2
Type: cell-based
Conditions: anti-CD3 stimulation alone, 48 hours, 3 μM inhibitor, fold change over baseline
PROPERTY NAME: fold induction at 3 µM

Here are 6 molecules together with their reported answers.
Look up fold induction at 3 µM with primary human total T-cells for this molecule: C[C@H]1CCCN(Cc2cc3c(c(C4CC4)n2)CN(c2cccc([C@]4(Cc5nncn5C)C[C@@H](C#N)C4)c2)C3=O)C1
> 0.85

Look up fold induction at 3 µM with primary human total T-cells for this molecule: Cn1cnnc1C[C@]1(c2cccc(N3Cc4c(cc(CN5CCCCC(C)(F)C5)cc4C(F)(F)F)C3=O)c2)C[C@H](C#N)C1 (stereo partly shown)
< 0.4

Look up fold induction at 3 µM with primary human total T-cells for this molecule: Cn1cnnc1C[C@]1(c2cccc(N3Cc4c(cc(CN5CCC[C@H](C(F)(F)F)C5)nc4C4CC4)C3=O)c2)C[C@H](C#N)C1
> 0.85

Look up fold induction at 3 µM with primary human total T-cells for this molecule: Cc1cc(C(=O)Nc2cccc([C@]3(Cc4nncn4C)C[C@H](C#N)C3)c2)nc(C2CC2)n1
< 0.4

Look up fold induction at 3 µM with primary human total T-cells for this molecule: Cn1cnnc1C[C@]1(c2cccc(N3Cc4c(cc(CNC5CCC(F)(F)C5)nc4C4CC4)C3=O)c2)C[C@H](C#N)C1 (stereo partly shown)
< 0.4

Look up fold induction at 3 µM with primary human total T-cells for this molecule: C[C@@H]1CN(Cc2cc3c(c(C(F)(F)F)c2)CN(c2cccc([C@]4(Cc5nncn5C)C[C@@](C)(C#N)C4)c2)C3=O)CCO1
< 0.4

New cases:
Look up fold induction at 3 µM with primary human total T-cells for this molecule: Cn1cnnc1C[C@]1(c2cccc(N3Cc4c(cc(CN5CCOCC6(CC6)C5)cc4C(F)(F)F)C3=O)c2)C[C@H](C#N)C1
< 0.4

Look up fold induction at 3 µM with primary human total T-cells for this molecule: Cn1cnnc1C[C@]1(c2cccc(N3Cc4c(cc(CN5CC6COC(C6)C5)cc4C(F)(F)F)C3=O)c2)C[C@H](C#N)C1 (stereo partly shown)
> 0.85

Look up fold induction at 3 µM with primary human total T-cells for this molecule: Cn1cnnc1C[C@]1(c2cccc(N3Cc4c(cc(CNC5CC6(C5)CC6(F)F)cc4C(F)(F)F)C3=O)c2)C[C@H](C#N)C1 (stereo partly shown)
0.4 to 0.85

Look up fold induction at 3 µM with primary human total T-cells for this molecule: Cn1cnnc1C[C@]1(c2cccc(N3Cc4c(cc(CN[C@@H]5CCC(F)(F)C5)cc4C(F)(F)F)C3=O)c2)C[C@H](C#N)C1
> 0.85

Look up fold induction at 3 µM with primary human total T-cells for this molecule: C[C@@H]1CN(Cc2cc3c(c(C(F)(F)F)c2)CN(c2cccc([C@]4(Cc5nncn5C)C[C@](C)(C#N)C4)c2)C3=O)CCO1
< 0.4

Look up fold induction at 3 µM with primary human total T-cells for this molecule: Cn1cnnc1C[C@]1(c2cccc(N3Cc4c(cc(CN5CCO[C@H](C(F)(F)F)C5)cc4C(F)(F)F)C3=O)c2)C[C@H](C#N)C1
> 0.85

Look up fold induction at 3 µM with primary human total T-cells for this molecule: C[C@@H]1CN(Cc2cc(C(=O)Nc3cccc([C@]4(Cc5nncn5C)C[C@@H](C#N)C4)c3)nc(C3CC3)n2)CCC1(F)F
> 0.85

Look up fold induction at 3 µM with primary human total T-cells for this molecule: CN(Cc1cc2c(c(C(F)(F)F)c1)CN(c1cccc([C@]3(Cc4nncn4C)C[C@@H](C#N)C3)c1)C2=O)C1CC(F)(F)C1
0.4 to 0.85

Look up fold induction at 3 µM with primary human total T-cells for this molecule: CC1COCCN(Cc2cc3c(c(C(F)(F)F)c2)CN(c2cccc([C@]4(Cc5nncn5C)C[C@@H](C#N)C4)c2)C3=O)C1 (stereo partly shown)
0.4 to 0.85

Look up fold induction at 3 µM with primary human total T-cells for this molecule: CC1CCCCN(Cc2cc3c(c(C(F)(F)F)c2)CN(c2cccc([C@]4(Cc5nncn5C)C[C@@H](C#N)C4)c2)C3=O)C1 (stereo partly shown)
> 0.85

Look up fold induction at 3 µM with primary human total T-cells for this molecule: Cn1cnnc1C[C@]1(c2cccc(N3Cc4c(cc(CN5CCCOCC5)cc4C(F)(F)F)C3=O)c2)C[C@H](C#N)C1
0.4 to 0.85

Look up fold induction at 3 µM with primary human total T-cells for this molecule: CCC1COCCN(Cc2cc3c(c(C(F)(F)F)c2)CN(c2cccc([C@]4(Cc5nncn5C)C[C@@H](C#N)C4)c2)C3=O)C1 (stereo partly shown)
0.4 to 0.85

Look up fold induction at 3 µM with primary human total T-cells for this molecule: Cn1cnnc1C[C@]1(c2cccc(N3Cc4c(cc(CN5CCCCC(F)(F)C5)cc4C(F)(F)F)C3=O)c2)C[C@H](C#N)C1
0.4 to 0.85

Look up fold induction at 3 µM with primary human total T-cells for this molecule: Cn1cnnc1C[C@]1(c2cccc(N3Cc4c(cc(CN5CCCCC(CO)C5)cc4C(F)(F)F)C3=O)c2)C[C@H](C#N)C1 (stereo partly shown)
0.4 to 0.85

Look up fold induction at 3 µM with primary human total T-cells for this molecule: C[C@@H]1C[C@H](C)CN(Cc2cc3c(c(C(F)(F)F)c2)CN(c2cccc([C@]4(Cc5nncn5C)C[C@@H](C#N)C4)c2)C3=O)C1
> 0.85

Look up fold induction at 3 µM with primary human total T-cells for this molecule: C[C@H]1CCCN(Cc2cc3c(c(C(F)(F)F)c2)CN(c2cccc([C@]4(Cc5nncn5C)C[C@@H](C#N)C4)c2)C3=O)C1
> 0.85
